target: mature human TGF-β1 (human, UniProt P01137 279-390); test: cell-based or functional assay
Sequence (P01137 279-390 limits assumed): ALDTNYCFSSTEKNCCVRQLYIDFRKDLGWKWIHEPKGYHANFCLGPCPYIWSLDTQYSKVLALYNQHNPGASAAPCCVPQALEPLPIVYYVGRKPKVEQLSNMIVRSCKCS
READOUT_KIND: HT-2 cell neutralization assay, IC50 (Mean ng/ml) (ng/mL)
State just the number; it will be interpreted in ng/mL.

Would you please look over these solved cases?
[[record]]
binder = "mAb 12.4 (antibody, human IgG4 S228P, kappa, V domains shown, Full-length monoclonal antibody, made by linking the Fab to an IgG4 Fc region) VH: QVQLVQSGAEVKKPGASVKVSCKASGYTFTSYWMNWVRQAPGQGLEWMGQIFPALGSTNYGEMFEGRVTMTTDTSTSTAYMELRSLRSDDTAVYYCARGIGNYALDAMDYWGQGTLVTVSS VL: DIQMTQSPSSLSASVGDRVTITCRASESVDWWGNSFMHWYQQKPGKAPKLLIYLASNLESGVPSRFSGSGSGTDFTLTISSLQPEDFATYYCQQNIEDPLTFGGGTKVEIKR"
value_reported = 0.44

[[record]]
binder = "mAb 4.17 (antibody, human IgG4 S228P, kappa, V domains shown, Full-length monoclonal antibody, made by linking the Fab to an IgG4 Fc region) VH: QVQLVQSGAEVKKPGASVKVSCKASGYTFTSYWMNWVRQAPGQGLEWMGQIFPFSGSTNYNEMFEGRVTMTTDTSTSTAYMELRSLRSDDTAVYYCARGIGNYALDAMDYWGQGTLVTVSS VL: DIQMTQSPSSLSASVGDRVTITCRASESVDFWGNSFMHWYQQKPGKAPKLLIYLASNLESGVPSRFSGSGSGTDFTLTISSLQPEDFATYYCQQNAEDPLTFGGGTKVEIKR"
value_reported = 0.42

[[record]]
binder = "mAb 3.A (antibody, human IgG4 S228P, kappa, V domains shown, Full-length monoclonal antibody, made by linking the Fab to an IgG4 Fc region) VH: QVQLVQSGAEVKKPGASVKVSCKASGYTFTSYWMNWVRQAPGQGLEWMGQIFPASGSTNYGEMFEGRVTMTTDTSTSTAYMELRSLRSDDTAVYYCARGIGNYALDAMDYWGQGTLVTVSS VL: DIQMTQSPSSLSASVGDRVTITCRASESVDFWGNSFMHWYQQKPGKAPKLLIYLASNLESGVPSRFSGSGSGTDFTLTISSLQPEDFATYYCQQNIEDPLTFGGGTKVEIKR"
value_reported = 2.62

[[record]]
binder = "1D11.16 (antibody, from another filing, V domains shown) VH: QVQLQQSGPELVRPGASVKLSCKASGYIFITYWMNWVKQRPGQGLEWIGQIFPASGSTNYNEMFEGKATLTVDTSSSTAYMQLSSLTSEDSAVYYCARGDGNYALDAMDYWGQGTSVTVSS VL: DIVLTQSPASLAVSLGQRATISCRASESVDSYGNSFMHWYQQKSGQPPKLLIYLASNLESGVPARFSGSGSRTDFTLTIDPVEADDAATYYCQQNNEDPLTFGAGTKLEIK"
value_reported = 215


Exercise: Quick one: HT-2 cell neutralization assay, IC50 (Mean ng/ml) for mAb 12.7 (antibody, human IgG4 S228P, kappa, V domains shown, Full-length monoclonal antibody, made by linking the Fab to an IgG4 Fc region) VH: QVQLVQSGAEVKKPGASVKVSCKASGYTFTSEWMNWVRQAPGQGLEWMGQIFPALGSTNYNEMYEGRVTMTTDTSTSTAYMELRSLRSDDTAVYYCARGIGNYALDAMDYWGQGTLVTVSS VL: DIQMTQSPSSLSASVGDRVTITCRASESVDFYGNSFMHWYQQKPGKAPKLLIYLASNLESGVPSRFSGSGSGTDFTLTISSLQPEDFATYYCQQNIEDPLTFGGGTKVEIKR ?
Key: 0.59

// provenance: patent US20090155285A1
